- measurementProtocol: yeast display, Sf9 membrane polyspecificity reagent, FACS + sequencing; frameworks hold sequencing errors
measuredQuantity: polyreactivity (PSR sort gate)

[[record]]
recordsequence = "QVQLEESGGGLVQAGGSLRLSCAASGFTFNYYTMGWYTQAPGKERELVATISTRGGSTYYADSVKGRFTISRDNAKNSVYLQMNSLKPEDTAVYYCNVGQKSVSSAYDYWGQGTEVTVSS"
result = "high polyreactivity"

[[record]]
recordsequence = "QVQLVESGGGLVHAGGRLRLSCAASGRIFWINAMGWSRQAPGKDRELVATISSGSTSYADSVKGRFTISRDNAKNTVYLQMNRLKPEATAVYYCAVTLRYTRSGAYDYWGQGTQVTVSS"
result = "low polyreactivity"

[[record]]
recordsequence = "QVQLVESGGGLVQAGGSLRLSCAASGFTFGGNARGWYRQAPGKERELVAAIRRGGSTNYADSVKGRFTISRDNAKNTVYLQMNSLKPEDTAVYYCARDYRSYTGSYDTSYDYWGQGTQVTVSS"
result = "high polyreactivity"

[[record]]
recordsequence = "QVQLVESGGGLVQAGGSLRLSCAASGSIFYSYAMGWYRQAPGKERELVAAITDSGDDTYYADSVKGRFTISRDNAKNTVYLQMNSLKPEDSAVYYCAAEQIYYTSDSSYFVTYDDWGQGTQVSVSS"
result = "high polyreactivity"

[[record]]
recordsequence = "QVQLVESGGGLVQAGGSLRLSCAASGSTFEHYAMGWYRQAPGKERELVAAISYTGGNTYYADSVKGRFTISRDNAKNTVYLQMNSLKPEDTAVYYCAAAPLYYHRRGYYYWGQGTQVTVSS"
result = "high polyreactivity"

[[record]]
recordsequence = "QVQLVESGGGLLQAGGSLRFSCAASGRILAGNAMGWYRQAPGTEREWVAAICSVDSTNYADSVKGRFTISRDNAKNTFYLLMYSLKPEDSAVYYCARVPQYNTYSEFDSWGQGTQVTVSS"
result = "low polyreactivity"

[[record]]
recordsequence = "QVQLVESGGGLVQAGGSLPLSIAASGRIFHIYAMGWYRQAPGKERELVAAISGSTSYADSVKGRFTISRDNAKNTVNLQMNSLKPEDKAVYYCAARALLPNGEYWGQGTQVTVSS"
result = "low polyreactivity"

[[record]]
recordsequence = "QVQLVESGGGLVQAGGSLRLSCAASGRIFHYYAMGWYRQAPGKERELVAAINSAGSTKYADSVKGRFTISRDNAKNTVYLQMNSLKPEDTAVYYCAAERGSRDGGYDYWGQGTQVTVSS"
result = "low polyreactivity"

[[record]]
recordsequence = "QVQLVESGGGLVQAGGSLRLSCAASGFIFRNYAMGWYRQAPGKERELVASISRGTSTNYADSVKGRFTISRDNAKNTVDLQMNSLKPEDTAVYYCAVGRYPYGSARYGFDYWGQGTQVSVSS"
result = "high polyreactivity"

[[record]]
recordsequence = "QVQLVESGGGLVQAGGSLRLSCAASGSTFLYYDMGWYRQAPGKERELVATITRGGSTYYADSVKGRFTISRDNAKNTVYLQMNSLKPEDTAVYYCAAYRWGILSAYYYAWYGYWGQGTQVTVSS"
result = "low polyreactivity"

[[record]]
recordsequence = "QVQLVESGGGLVQAGGSLRLSCAASGRIFYWNTMGWYRQAPGKEREFVAAITYGGGRTYYADSVKGRFTISRDNAKNTVYLQMNSLKPEDTAVYYCARRIPTLYLDYDYCGQGTQVTVSS"
result = "high polyreactivity"


---

- measurementProtocol: yeast display, Sf9 membrane polyspecificity reagent, FACS + sequencing; frameworks hold sequencing errors
measuredQuantity: polyreactivity (PSR sort gate)

[[record]]
recordsequence = "QVQLVESGGGLVQAGGSLRLSCAASGRTFVPYAMGWYRQAPGKERELVARIDSSGGSTYYADSVKGRFTISRDNAKNTVYLQMNSLKPEDTAVYYCAAVFYYWSLRSYYWGQGTQVTVSS"
result = "high polyreactivity"

[[record]]
recordsequence = "QVQLVESGGGLVQAGGSIRLSCAASGSIFAPYAMGSYRQATGKVREFVAAISWSGGGTYYADSVQGRFTISRDNAKNTVNLQMNSLKPEDTAVYYCAAYRNKESIFRTILDYWGQGTQVTVSS"
result = "low polyreactivity"

[[record]]
recordsequence = "QVQLVESGGGLVQAGGSLRLSCAASGRTFYVKSMGWYRQAPGKERELVAGISFSDGSTYYADSVKGRFTISRDNAKNTVYLQMNSLKPEDTAVYYCATVGAFDIYYGYGYWGQGTQVTVSS"
result = "low polyreactivity"

[[record]]
recordsequence = "QVQLVESGGGLVQAGGSLRLSCAASGSIFLSYDMGWYRQAPGKERELVAAITQSGGSTYYADSVKGRFTISRDNAKNTVYLQINSLIPEDTAVYYCAADYGYLPQETYPTYGYYYWGQGTQVTVSS"
result = "low polyreactivity"

[[record]]
recordsequence = "QVQLVESGGGLVQAGGSLRLSCAASGFTFIKYAMGWSRQAPGNEMEFVAAITRSGTSTYYADSVKGRFTISRDNAKNTVYLQMNSLKPEDTAVYYCAATYPRYYSGEFDYWGQGTLVTVSS"
result = "high polyreactivity"


---

- measurementProtocol: yeast display, Sf9 membrane polyspecificity reagent, FACS + sequencing; frameworks hold sequencing errors
measuredQuantity: polyreactivity (PSR sort gate)

[[record]]
recordsequence = "QVQLVESGGGLVQAGGSLRLSCAASGSIFNYYGMGWYRQAPGKERELVAAISVRGGRTYYADSVKGRFTISRDNAKNTVYLQMNSLKPEDTAVYYCAADGGYSLGYYDDELDYWGQGTQVTVSS"
result = "low polyreactivity"

[[record]]
recordsequence = "QVQLVESGGGLVQAGGSLRLTCAASGSIFWDNAMGWYRQAPGKERALFAAITSSGGSTHYADSVKGRFTISRDNAKNTVYLQMYSLKPEDTAVYYCAARRYYGVYYAFLYWGQGTQVTVSS"
result = "high polyreactivity"

[[record]]
recordsequence = "QVQLVESGGGLVQAGGSLRLSCAASGGIFSRNAMGWSRQAPGKERELVAAISSGGSTYYADSVKGRFTISRDNAKNTVYLQMNTLKPEDTAVYYCAAKRSGQRTLLGYWGQGTQVTVSS"
result = "high polyreactivity"

[[record]]
recordsequence = "QVQLVESGGGLFQAGGSLRLSCAASGSTIWSYAMGWYRQAPGKERELVASITWSGGSTYADSVKGRFTISRDNAKNTVYFQMNRLKPEDTAVYYCARESTLTYYSDDFDYWGQGTQVTVSS"
result = "low polyreactivity"

[[record]]
recordsequence = "QVQLVESGGGLVQAGGSLRLSCAASGRTFGFNVMGWYRQAPGKEREFVAAITRSGGSTYYADSVKGRFTISRDIAKNTVYLQMNSLKPEDTAVYSCAAYKFSARYYYWGQGTQVTVSS"
result = "high polyreactivity"


---

- measurementProtocol: yeast display, Sf9 membrane polyspecificity reagent, FACS + sequencing; frameworks hold sequencing errors
measuredQuantity: polyreactivity (PSR sort gate)

[[record]]
recordsequence = "HEHLQESRGGLVQAGGSLRLSCAASGSIFQATYMGWYRQAPRKEREFVASITYGSITNYADSVKGRFTIGRDNATDTLYLQMNSLKQEDTAVYYWAVDRHYIPAFHYWGQGTQVTVSS"
measuredquantity = "polyreactivity (PSR sort gate)"
result = "low polyreactivity"

[[record]]
recordsequence = "QVQLVESGGGLVQAGGSLRLSCAASGRIFRYNAMGWYRQAPGKEREFVAAISWSGDRTYYADSVKGRFTISRDNAKNTGYLQMNSLKTEDTAVYYCADVPATSYPRRYVYAYYYWGQGTQVTVSS"
measuredquantity = "polyreactivity (PSR sort gate)"
result = "high polyreactivity"

[[record]]
recordsequence = "QVQLVESGGGLVQAGGSLRLSCAASGRTFWYYGMGWYRQAPGKERELVAAISRSGGRTSYADSVKGRFTISRDNAKNTVYLQMNSLKPEDTAVYYCATDGYYRYGYWGQGTQVTVAS"
measuredquantity = "polyreactivity (PSR sort gate)"
result = "high polyreactivity"

[[record]]
recordsequence = "QVQLVESGGGLVQAGGSLRLSCAASGSIIPGYTMGWYRQAPGKERELVAAISRRGGSTYYADSVKGRFTISRDNAKNTVYLQMNSLKPEDTAVYYCAASLWYRISKYDYWGQGTQVTVSS"
measuredquantity = "polyreactivity (PSR sort gate)"
result = "high polyreactivity"

[[record]]
recordsequence = "QVQLVESGGGLVQAGGSLRLSCAASGSTVGHYAMGWYRQAPGKERELVAAISVSGGSTYYADSVKGRFTISRDTAKNTVYLQMNSLKPEDTAVYYCAREYAHLSFLSTSSDYWGQGTQVTVSS"
measuredquantity = "polyreactivity (PSR sort gate)"
result = "low polyreactivity"


---

- measurementProtocol: yeast display, Sf9 membrane polyspecificity reagent, FACS + sequencing; frameworks hold sequencing errors
measuredQuantity: polyreactivity (PSR sort gate)

[[record]]
recordsequence = "QVQHVESGGGIVQAGGSLRLSCAASGSIFYQYAMGWYRQSPGKERELVAASSRSGGSTYYADSVKGRFTISRHNAKNTVYLQMNSLKPEDTAVYYCAARAVRAAYDYWGQGTQVTVSS"
measuredquantity = "polyreactivity (PSR sort gate)"
result = "low polyreactivity"

[[record]]
recordsequence = "QVQLVESGGGLVQAGGSLRLSCAASGFIFVYYAMGWYRQAPGKERELVAAITSDVNTYYADSVKGRFTISRDNAKNTVYLQMNSLKPEDTAVYYCNADADDYRDYQDYDYWGQGTQVTVSS"
measuredquantity = "polyreactivity (PSR sort gate)"
result = "low polyreactivity"

[[record]]
recordsequence = "QDQLVDSGGGLLQAGGSLRLSCAASGSMLSTYAMGWYRQATGKERELVASISSIAGSTYYADSVKGRFTISRDNAMNTVYLQLNILKPEDNAVYYCNKVYGGGSYDYWGQGTQVTVSS"
measuredquantity = "polyreactivity (PSR sort gate)"
result = "low polyreactivity"

